Molecular target: T1, P3028 (VFDEFKPLVEEPQNLIK, SEQ ID NO: 185), His-tagged (human)
T1 construct: Synthetic fragment of human serum albumin (positions 397-413); used in solution as His-tagged peptide PGE73; also called PGE73; not shown: His-tag
T1 peptide: VFDEFKPLVEEPQNLIK
Assay: PEPSCAN ELISA; peptide on chip, His-P3028 added;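 note: peroxidase color development with ABTS and H2O2 substrate, OD405 imaged by CCD camera with image processing and taken as raw values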
RAMPO Score overview
readout label: RAMPO Score

                                     binder   value_observed
0  KKLDTFFAKLSLFTER [KKLDTFFAKLSLFTER (SEQ ID NO: 495)]  299 rampo units
1  KKLDIFFVKLSLFTER [KKLDIFFVKLSLFTER (SEQ ID NO: 501)]  293 rampo units
2  KKLDTFFVKLSLFTHR [KKLDTFFVKLSLFTHR (SEQ ID NO: 478)]  318 rampo units
3  KKLDTFFVKLSVFTER [KKLDTFFVKLSVFTER (SEQ ID NO: 359)]  545 rampo units
4  KKIDTFFVKLSLFTER [KKIDTFFVKLSLFTER (SEQ ID NO: 289)]  454 rampo units
5  KKLDTFFVKLSLITER [KKLDTFFVKLSLITER (SEQ ID NO: 365)]  468 rampo units
6  KKLDTFFVKLVLFTER [KKLDTFFVKLVLFTER (SEQ ID NO: 419)]  392 rampo units
7  KKADTFFVKLSLFTER [KKADTFFVKLSLFTER (SEQ ID NO: 282)]  427 rampo units
